# test target: RNA-binding protein pos-1 (Caenorhabditis elegans)
# Sequence (G5EF15 whole entry): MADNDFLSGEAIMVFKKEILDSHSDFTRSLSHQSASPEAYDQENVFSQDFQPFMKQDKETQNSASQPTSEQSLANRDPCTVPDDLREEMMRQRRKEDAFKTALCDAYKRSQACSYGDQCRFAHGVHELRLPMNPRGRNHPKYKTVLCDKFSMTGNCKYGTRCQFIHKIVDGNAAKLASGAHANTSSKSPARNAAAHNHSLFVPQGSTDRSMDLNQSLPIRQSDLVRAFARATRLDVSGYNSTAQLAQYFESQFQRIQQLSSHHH
# measurement protocol: inhibitors of POS-1/mex-3 RNA binding, dose response, biochemical, fluorescence polarization (AID 1964);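 note: purified POS-1 fused to maltose binding protein made in E. coli; potency of compounds blocking POS-1 binding to fluorescent RNA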
Calls of active or inactive are those of the source.
Give EC50 for every item shown.

Please give the measured EC50 for this compound: CCOCCCn1/c(=N/C(C)=O)c(C#N)cc2c(=O)n3ccccc3nc21
> 300 µM (not active)

// EC50 lookup, key: O=C1NC(=O)N(CC2CCCO2)C(=O)/C1=C/c1c[nH]c2ccccc12 (stereo not given)
> 300 µM (not active)

Value lookup for EC50; key = Cc1cc(C(=O)O)ccc1-n1c(C)cc(/C=C2\SC(=O)NC2=O)c1C
> 300 µM (not active)

Look up EC50 for this compound: CC1=C(C#N)C(=O)NC(=O)/C1=C\c1ccc(-c2ccc(C)cc2[N+](=O)[O-])o1
36.4 µM (active)

Given Cc1cc(C)c[n+](-c2[n-]c(=O)sc2C=NN=C(S)Nc2ccccc2)c1 , state its recorded EC50.
9.61 µM (active)

###

# test target: Melanocortin receptor 4 (Homo sapiens, UniProt P32245)
# Sequence (P32245 whole entry): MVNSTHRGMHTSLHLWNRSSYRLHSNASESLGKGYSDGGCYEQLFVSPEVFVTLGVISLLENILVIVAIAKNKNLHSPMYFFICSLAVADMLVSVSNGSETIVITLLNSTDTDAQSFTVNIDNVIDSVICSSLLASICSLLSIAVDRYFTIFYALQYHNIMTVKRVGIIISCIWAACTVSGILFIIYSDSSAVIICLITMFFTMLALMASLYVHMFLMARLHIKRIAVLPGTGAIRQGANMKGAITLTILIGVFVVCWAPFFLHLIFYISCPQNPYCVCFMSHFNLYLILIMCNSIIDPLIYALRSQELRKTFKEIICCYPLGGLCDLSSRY
# measurement protocol: MC4R antagonist potency on cAMP, dose response, cell-based, TR-FRET, biased antagonists (AID 602298);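 note: antagonist potency against agonist-stimulated cAMP production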
# Format: functional
The source made the active and inactive calls.
I'd appreciate it if you could supply IC50 values for the items below.

Please report the recorded IC50 for CSCCC(NC(=O)c1ccc([N+](=O)[O-])cc1Cl)C(=O)OC(C)C(=O)NCc1ccco1 (centres undefined) .
> 64.6 µM (inactive)

Quick check: IC50 of Cc1ccc(Nc2nc(N/N=C/c3c[nH]c4ccccc34)nc(N3CCOCC3)n2)cc1 ?
> 64.6 µM (inactive)

IC50 lookup needed for N=c1c2c(-c3ccccc3)c(-c3ccccc3)n(Cc3ccccc3)c2ncn1CCCn1ccnc1 , thanks.
> 64.6 µM (inactive)

Returns the measured IC50 for the input compound. Input: Cc1ncn(-c2ccc(C(=O)Oc3ccccc3)cn2)n1
> 64.5 µM (inactive)

###

# test target: Paired box protein Pax-8 (Homo sapiens)
# Sequence (Q06710 whole entry): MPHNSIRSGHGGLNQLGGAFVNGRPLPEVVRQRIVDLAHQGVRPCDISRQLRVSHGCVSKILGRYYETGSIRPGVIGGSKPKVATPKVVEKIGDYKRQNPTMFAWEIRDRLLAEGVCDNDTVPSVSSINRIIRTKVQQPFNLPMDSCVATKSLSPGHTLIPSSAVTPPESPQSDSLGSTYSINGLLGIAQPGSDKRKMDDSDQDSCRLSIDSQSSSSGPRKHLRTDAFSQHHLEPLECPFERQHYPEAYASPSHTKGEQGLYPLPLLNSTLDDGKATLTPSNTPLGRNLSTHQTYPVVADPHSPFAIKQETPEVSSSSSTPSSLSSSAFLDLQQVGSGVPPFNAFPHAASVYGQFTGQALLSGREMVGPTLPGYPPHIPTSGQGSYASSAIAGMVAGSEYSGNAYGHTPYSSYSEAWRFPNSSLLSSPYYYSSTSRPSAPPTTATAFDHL
# measurement protocol: inhibitors of PAX8-driven TPO luciferase reporter, dose response, RMG-I cells, cherry-pick (AID 687027);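 note: luciferase reporter driven by Pax8 target thyroperoxidase promoter measured by SteadyGlo luminescence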
# Format: functional, cell-based
Activity calls are given as the source filed them.
Exercise: state measured AC50 for each of the compounds provided.

Given the compound CCS(=O)(=O)N1CC(=O)N2[C@H](CO)[C@@H](c3ccc(-c4ccccc4F)cc3)[C@H]2C1 , what is its reported AC50?
5.26 µM (active)

Return reported AC50; argument: Cc1ccc(C(=O)Nc2cnc3ccccc3c2)cc1
3.57 µM (active)

Give the measured AC50 of C[C@@H]1CCCCO[C@@H](CN(C)Cc2ccc(Cl)c(Cl)c2)[C@@H](C)CN([C@@H](C)CO)C(=O)c2cc(NC(=O)Nc3ccccc3)ccc2O1 .
4.6 µM (active)

So what does the record say about AC50 for C[C@@H]1CN([C@H](C)CO)C(=O)c2cc(NC(=O)Cc3ccccc3)ccc2O[C@@H](C)CCCCO[C@H]1CN(C)Cc1ccc(C(F)(F)F)cc1 ?
3.98 µM (active)

Bench note: what AC50 did C[C@H]1CN([C@@H](C)CO)C(=O)Cc2cc(NC(=O)Nc3ccc(C(F)(F)F)cc3)ccc2O[C@H]1CN(C)C(=O)NC1CCCCC1 show?
10.2 µM (active)

Look up AC50: O=C(Nc1cccc(F)c1)N1CCCCN2[C@H](CO)[C@@H](c3ccc(C#Cc4ccccc4)cc3)[C@H]2C1
15.4 µM (active)

Reported AC50, compound Cc1ccc(S(=O)(=O)Nc2ccc3c(c2)C(=O)N([C@@H](C)CO)C[C@H](C)[C@@H](CN(C)Cc2ccc(Cl)c(Cl)c2)OCCCC[C@@H](C)O3)cc1 : ____
5.22 µM (active)

Look up AC50 for this compound: N#C[C@H]1[C@H](c2ccc(C#Cc3ccccc3F)cc2)[C@H](CO)N1C(=O)C1CCC1
11.1 µM (active)

So what does the record say about AC50 for Cn1nnnc1Sc1ncnc2scc(-c3ccc4c(c3)OCO4)c12 ?
0.747 µM (active)

Looking for the measured AC50 of C[C@@H]1CN([C@H](C)CO)C(=O)c2c(c3ccccc3n2C)-c2ccccc2CO[C@@H]1CN(C)S(=O)(=O)c1ccc(C(F)(F)F)cc1 , can you help?
5.24 µM (active)

GET /values?readout=AC50&item= C[C@@H]1CN([C@@H](C)CO)C(=O)c2cc(NC(=O)CCC(F)(F)F)ccc2O[C@@H](C)CCCCO[C@H]1CN(C)Cc1ccc(C(F)(F)F)cc1
2.43 µM (active)

###

# test target: Voltage-dependent T-type calcium channel subunit alpha-1H (Homo sapiens, UniProt O95180);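 note: channel activity triggered by adding a high calcium stimulation buffer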
# Sequence (O95180 whole entry): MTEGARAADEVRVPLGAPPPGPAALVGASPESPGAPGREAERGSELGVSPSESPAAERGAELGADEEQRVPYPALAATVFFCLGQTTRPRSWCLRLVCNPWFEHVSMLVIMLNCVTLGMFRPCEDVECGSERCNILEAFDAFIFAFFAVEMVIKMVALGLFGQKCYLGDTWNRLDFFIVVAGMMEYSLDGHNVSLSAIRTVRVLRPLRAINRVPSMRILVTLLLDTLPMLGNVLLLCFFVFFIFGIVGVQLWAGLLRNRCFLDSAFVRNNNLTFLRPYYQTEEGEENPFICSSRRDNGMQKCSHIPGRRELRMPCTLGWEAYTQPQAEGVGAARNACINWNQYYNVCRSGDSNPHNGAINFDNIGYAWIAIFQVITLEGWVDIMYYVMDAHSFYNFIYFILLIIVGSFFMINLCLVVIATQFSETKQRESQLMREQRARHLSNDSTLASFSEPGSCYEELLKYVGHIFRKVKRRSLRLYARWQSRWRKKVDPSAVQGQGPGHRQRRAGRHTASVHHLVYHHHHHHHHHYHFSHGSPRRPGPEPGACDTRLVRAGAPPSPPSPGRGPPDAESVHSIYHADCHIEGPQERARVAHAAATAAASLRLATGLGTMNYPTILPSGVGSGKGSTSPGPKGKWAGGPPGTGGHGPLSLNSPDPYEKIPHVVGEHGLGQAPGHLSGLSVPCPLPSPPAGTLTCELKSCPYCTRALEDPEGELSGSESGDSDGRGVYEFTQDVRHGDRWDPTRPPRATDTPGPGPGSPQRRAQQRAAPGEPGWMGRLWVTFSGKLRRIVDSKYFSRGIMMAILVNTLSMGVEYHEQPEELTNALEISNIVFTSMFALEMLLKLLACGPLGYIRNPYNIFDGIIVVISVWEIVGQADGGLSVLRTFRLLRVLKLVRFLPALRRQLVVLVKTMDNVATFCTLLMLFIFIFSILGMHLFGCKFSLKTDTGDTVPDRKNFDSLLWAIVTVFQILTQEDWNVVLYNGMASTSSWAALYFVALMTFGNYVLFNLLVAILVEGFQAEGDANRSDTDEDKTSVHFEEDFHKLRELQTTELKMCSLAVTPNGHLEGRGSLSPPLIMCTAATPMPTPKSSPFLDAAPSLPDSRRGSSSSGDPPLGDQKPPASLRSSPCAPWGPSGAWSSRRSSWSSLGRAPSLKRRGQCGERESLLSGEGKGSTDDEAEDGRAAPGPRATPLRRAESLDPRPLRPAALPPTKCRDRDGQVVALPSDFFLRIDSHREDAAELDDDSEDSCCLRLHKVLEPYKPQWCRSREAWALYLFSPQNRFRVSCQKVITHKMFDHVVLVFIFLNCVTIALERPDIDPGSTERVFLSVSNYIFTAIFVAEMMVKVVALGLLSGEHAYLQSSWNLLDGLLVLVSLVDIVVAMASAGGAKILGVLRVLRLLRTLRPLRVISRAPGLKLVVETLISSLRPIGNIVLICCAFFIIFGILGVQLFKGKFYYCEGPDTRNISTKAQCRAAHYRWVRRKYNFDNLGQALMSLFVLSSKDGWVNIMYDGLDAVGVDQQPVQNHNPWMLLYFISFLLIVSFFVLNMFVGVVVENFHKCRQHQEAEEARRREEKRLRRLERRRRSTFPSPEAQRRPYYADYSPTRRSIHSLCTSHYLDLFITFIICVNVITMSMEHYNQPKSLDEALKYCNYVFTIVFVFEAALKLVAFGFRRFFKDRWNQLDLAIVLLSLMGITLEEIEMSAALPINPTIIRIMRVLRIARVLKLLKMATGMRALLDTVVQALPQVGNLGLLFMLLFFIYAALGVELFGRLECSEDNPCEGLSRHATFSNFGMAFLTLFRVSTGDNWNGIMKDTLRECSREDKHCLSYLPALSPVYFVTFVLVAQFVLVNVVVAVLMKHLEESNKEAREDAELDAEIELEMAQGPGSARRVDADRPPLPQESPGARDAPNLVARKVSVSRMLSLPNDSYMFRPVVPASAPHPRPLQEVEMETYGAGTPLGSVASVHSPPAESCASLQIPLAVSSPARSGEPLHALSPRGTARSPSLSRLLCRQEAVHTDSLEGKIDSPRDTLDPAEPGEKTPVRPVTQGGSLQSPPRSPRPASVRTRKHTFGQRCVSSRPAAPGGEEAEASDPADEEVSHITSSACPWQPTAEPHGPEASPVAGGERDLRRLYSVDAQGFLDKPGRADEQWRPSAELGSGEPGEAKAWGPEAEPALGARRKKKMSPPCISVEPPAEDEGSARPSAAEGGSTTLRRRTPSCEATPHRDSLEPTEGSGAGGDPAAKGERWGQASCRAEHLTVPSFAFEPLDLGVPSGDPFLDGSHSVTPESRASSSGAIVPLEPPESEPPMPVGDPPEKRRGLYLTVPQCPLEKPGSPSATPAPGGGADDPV
# Format: functional
Active and inactive are the calls of the source.
parameter: EC50

If you can, please state the reported EC50 value of CS(=O)(=O)N(CC(=O)N1CCN(c2ccccc2)CC1)c1ccc(Cl)c(C(F)(F)F)c1 .
5130 nM (active)

Which EC50 is reported for this compound? Cc1ccc(CNC(=O)Cn2cccc2C(=O)c2ccccc2)cc1
3770 nM (active)

Would you mind telling me what EC50 value was observed for Cc1cccc2cc(/C=C3\N=C(c4ccccc4)OC3=O)c(N3CCOCC3)nc12 ?
685 nM (active)

Consider the compound shown here: Cc1nn(Cc2ccccc2)c(C)c1NC(=O)c1cc(-c2cccs2)on1 What is its recorded EC50?
2710 nM (active)

// returns reported EC50 for input Cc1nnc(SCCC(=O)Nc2nc(-c3ccccc3)ns2)s1
2540 nM (active)

Which EC50 is listed for Cc1ccc(-n2c(Cc3cccn3C)nnc2SCC(=O)NCc2ccc3c(c2)OCO3)cc1 ?
1310 nM (active)

###

# measurement protocol: CRF-BP/CRF-R2 complex antagonists, dose response, cell-based, uHTS hits, 384-well (AID 651639)
# Format: functional, Homo sapiens
# conditions: read-out: IC50_Mean
The source made the active and inactive calls.
Return exactly one item of 1 = active, -1 = inactive

I would be grateful if you could indicate the recorded call for CCN(CC)C(=O)[C@H]1C[C@H](CC(=O)NC/C=C(\C)CCC=C(C)C)C(=O)N2CCc3c([nH]c4ccc(Cl)cc34)[C@]12C .
1

Test call for this compound, please: Cc1[nH]c2nc(SCC(=O)c3cccc([N+](=O)[O-])c3)nc-2cc1Br
1

Entry COc1cc(NC(=O)CSc2nc3c(C)ccc(C)c3cc2C)c(C(=O)O)cc1OC : call = ?
-1

State the result this test recorded for CC(C)C(Sc1nc(-c2ccccc2)cc(-c2ccccc2)c1C#N)C(=O)O (centres undefined) .
-1

###

AC50, UniProt P08684: measured values
Sequence (P08684 whole entry): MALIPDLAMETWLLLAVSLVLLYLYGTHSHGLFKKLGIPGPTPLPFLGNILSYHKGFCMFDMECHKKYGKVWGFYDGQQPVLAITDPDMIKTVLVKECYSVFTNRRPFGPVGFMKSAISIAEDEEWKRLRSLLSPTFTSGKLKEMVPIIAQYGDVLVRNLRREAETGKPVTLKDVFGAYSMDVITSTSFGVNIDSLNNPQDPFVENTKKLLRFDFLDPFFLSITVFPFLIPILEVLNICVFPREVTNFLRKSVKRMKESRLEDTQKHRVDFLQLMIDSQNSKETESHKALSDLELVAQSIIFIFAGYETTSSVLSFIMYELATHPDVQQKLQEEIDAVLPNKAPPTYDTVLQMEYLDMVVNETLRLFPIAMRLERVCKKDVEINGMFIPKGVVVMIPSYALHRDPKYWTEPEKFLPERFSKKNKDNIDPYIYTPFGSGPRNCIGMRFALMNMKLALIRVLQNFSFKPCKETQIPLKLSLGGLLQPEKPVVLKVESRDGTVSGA

What value of AC50 has been reported for the following compound? CC(C)NC(=O)N1CC[C@@]2(CCCN(C(=O)c3csnn3)C2)C1
15.8 µM (inconclusive)

Looking for the measured AC50 of CC(=O)O[C@H]1C2=CO[C@H](C)[C@H]3C4C5=C([C@@H](O[C@H]4C)[C@@]23C(=O)[C@H]2O[C@@H]21)[C@H](O)[C@H]1O[C@@H]1C5=O , can you help?
3.98 µM (inconclusive)

Give its AC50 value. Item: CC(C)CN1CCCC2(CCN(C(=O)c3cc(C(F)(F)F)cc(C(F)(F)F)c3)CC2)C1
15.8 µM (inconclusive)

Which AC50 value belongs to Cc1ccc(C(=O)N/N=C/c2nc3ccccc3n2C)cc1 ?
3.16 µM (inconclusive)

###

# test target: Leucine aminopeptidase (Plasmodium falciparum 3D7)
# Sequence (Q8IL11 whole entry): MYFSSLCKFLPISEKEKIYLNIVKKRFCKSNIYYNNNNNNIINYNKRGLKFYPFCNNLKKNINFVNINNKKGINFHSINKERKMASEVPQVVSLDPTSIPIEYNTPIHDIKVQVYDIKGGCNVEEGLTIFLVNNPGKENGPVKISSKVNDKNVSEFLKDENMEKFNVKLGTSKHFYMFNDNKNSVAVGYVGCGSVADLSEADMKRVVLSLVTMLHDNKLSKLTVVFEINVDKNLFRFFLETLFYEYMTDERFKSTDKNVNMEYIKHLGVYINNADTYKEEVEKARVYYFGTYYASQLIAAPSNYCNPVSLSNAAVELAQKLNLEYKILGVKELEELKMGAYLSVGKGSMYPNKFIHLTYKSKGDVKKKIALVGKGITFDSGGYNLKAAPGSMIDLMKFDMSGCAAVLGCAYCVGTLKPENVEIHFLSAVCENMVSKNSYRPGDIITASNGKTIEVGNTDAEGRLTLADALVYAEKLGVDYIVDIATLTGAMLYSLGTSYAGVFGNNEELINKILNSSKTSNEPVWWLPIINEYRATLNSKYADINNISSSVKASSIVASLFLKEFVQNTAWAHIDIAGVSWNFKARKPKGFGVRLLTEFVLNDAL
# measurement protocol: P. falciparum M17LAP inhibitors, primary screen, biochemical, fluorogenic H-Leu-NHMec substrate, 1536-well (AID 1619)
# Type: functional
The source made the active and inactive calls.
Consider the following molecules; for each one, report its IC50.

I'd like to know its IC50. The molecule in question is C=CCn1c(CNC(=O)c2ccco2)nnc1SCC(=O)Nc1cccc(Br)c1
90.1 µM (active)

Bench note: what IC50 did CC1=C(C#N)C(=O)NC(=O)/C1=C\c1ccc(-c2ccc(C)cc2[N+](=O)[O-])o1 show?
13.1 µM (active)

Please look up its IC50: O=C(O)COc1ccccc1/C=C1\SC(=S)N(/N=C/c2ccccc2O)C1=O
21.3 µM (active)

// IC50 lookup, key: COc1cc(NC(=O)CSc2nc3c(C)ccc(C)c3cc2C)c(C(=O)O)cc1OC
< 1 µM (active)

Requested field: IC50. Item: Cc1cc(C)cc(NC(=O)CSc2ncc(S(=O)(=O)c3ccccc3)c(=O)[nH]2)c1
11.9 µM (active)

Which IC50 is reported for this molecule? O=C(CSc1nnc[nH]1)Nc1cccc2ccccc12
29.2 µM (active)

Entry CCCc1cc(O)nc(SCC(=O)N(C)CC(=O)Nc2ccc(C)cc2)n1 : reported IC50 = ?
9.77 µM (active)

Bench note: what IC50 did Cc1cc(C)c(NC(=O)CN2C(=O)NC3(CCCCC3)C2=O)c(Cl)c1 show?
29.3 µM (active)

I have this molecule here, CC1=NNC(=O)C1CCC(=O)N/N=C/C(Br)=C/c1ccccc1 (stereo not drawn) , and I need its recorded IC50.
8 µM (active)

IC50 lookup needed for Cc1cc(O)nc(SCC(=O)Nc2cccc(C(F)(F)F)c2)n1 , thanks.
7.15 µM (active)

Item CCc1nnc(NS(=O)(=O)c2ccc(N/C=C\C(=O)c3cccc4ccccc34)cc2)s1 has what recorded IC50?
10.1 µM (active)

Data request, read-out IC50, for CCOC(=O)c1c(-c2cccc(C)c2)csc1NC(=O)C1CC=CCC1C(=O)O (stereo not drawn)
5.96 µM (active)

Query: IC50; subject: CC(C)CCNC(=O)c1ccc2c(SCC(=O)O)c3c(nc2c1)CCCC3
39.2 µM (active)

Cited source: ChEMBL document CHEMBL1201862
